Provide the recorded IC50 for the entries that follow.
System: SK-LU-1;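 also: cell viability assay measuring growth inhibition of human SK-LU-1 cells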
Assay: cells
Format: functional, cell-based
Conditions: Homo sapiens
Description: SANGER: Inhibition of human SK-LU-1 cell growth in a cell viability assay.

*Q* For the molecule shown here, O=c1[nH]c2ccccc2n1C1CCN(Cc2ccc(-c3nc4cc5[nH]cnc5cc4nc3-c3ccccc3)cc2)CC1 , give the reported IC50.
*A* > 2.56 µM

*Q* // repeat for CC(O)(CS(=O)(=O)c1ccc(F)cc1)C(=O)Nc1ccc(C#N)c(C(F)(F)F)c1 (stereo not drawn) [BICALUTAMIDE] and report
*A* > 1.02 µM

*Q* // repeat for COc1cc(Nc2c(C#N)cnc3cc(OCCCN4CCN(C)CC4)c(OC)cc23)c(Cl)cc1Cl and report
*A* > 2 µM
